# ASSAY DETAILS: NCI Yeast Anticancer Drug Screen. Data for the mec2-1 strain (AID 157)
# TEST CONDITIONS: S. cerevisiae mec2-1 strain, at 50.0 µM, hits give high values
Compounds without any hit were thinned out: in the full panel of roughly 79,000, 15% have a hit.
For each of the compounds below, state its growth inhibition.
Answers are plain numbers, in %.

These recorded examples may help you get a feel for the data.
Short answer for O=[As]c1ccc(O)c(O)c1 (stereo not drawn) : growth inhibition was 99.4

Short answer for O=C(O)c1ccccc1.[Zn+2] : growth inhibition was 8.6

Short answer for c1cc[c]([Ge]([c]2ccccc2)[c]2ccccc2)cc1.c1cc[c]([Ge]([c]2ccccc2)[c]2ccccc2)cc1 : growth inhibition was 1.45

Short answer for C1CN1Sc1nc(SN2CC2)nc(SN2CC2)n1 : growth inhibition was -5.55

Report growth inhibition for each item below.
1. Cc1cc(CCN)c(C)c2c1sc1ccccc12
2. c1ccc(CN2C3CCCC2CC(c2ccccc2)C3)cc1 (stereo not drawn)

-- reply
[94.3, 63.9]

Report growth inhibition for each item below.
1. [O-][n+]1onc2c1-c1nonc1CC2
2. c1ccc2c(c1)[Se]c1ccccc1[Se]2
3. O=C1[O][Hg][c]2c1cccc2[N+](=O)[O-]
4. OCC(S)CS.[Sb] (stereo not drawn)
5. CC(=O)C(CN(C)Cc1ccccc1)C(c1ccccc1)c1c(O)c2ccccc2oc1=O (stereo not drawn)
6. Cc1cc2n[se]nc2cc1C
7. O=C1C(=O)c2ccccc2C(O)=C1CN(CCCl)CCCl

-- reply
1. 5.65
2. -22.8
3. 99.2
4. 19.1
5. 56.2
6. -9.15
7. 17.9

Report growth inhibition for each item below.
1. CCCCSCCC(N)P(=O)(O)O (stereo not drawn)
2. COC(=O)C1(C(=O)OC)ON1C(C)(C)C (stereo not drawn)
3. OCC(Br)(Br)Br
4. CCOC(=O)Oc1c(Cl)cc(S(=O)(=O)F)cc1Cl
5. C[C@]12CCC(=O)C=C1CC[C@H]1[C@@H]3CCC(=O)[C@@]3(C)CC[C@@]12F
6. CCOC(OCC)c1ccccc1

-- reply
1: -62.4; 2: -17.6; 3: -4.3; 4: 99.8; 5: -6.1; 6: -5

Report growth inhibition for each item below.
1. O=S(=O)(Cl)OO/C=C\OOS(=O)(=O)Cl
2. COC(=O)[CH2][Sn]([CH2]C(=O)OC)([c]1ccccc1)[c]1ccccc1
3. CCC1CN2CCc3cc(OC)c(OC)cc3C2CC1CC1c2cc(OC)c(OC)cc2CCN1C(=O)C(N)Cc1ccccc1 (stereo not drawn)
4. [C-]#[O+].[C-]#[O+].[CH3][Sn]([CH3])[c]1ccccc1.[Fe+5].[c-]1[c-][c-][cH-][c-]1

-- reply
2.8
88.5
-0.5
98

###

# ASSAY DETAILS: NCI Yeast Anticancer Drug Screen. Data for the cln2 rad14 strain (AID 165);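 also: 0% = growth equal to vehicle treated cultures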
# TEST CONDITIONS: S. cerevisiae cln2 rad14 strain, at 50.0 µM, hits give high values
The panel holds about 79,000 compounds, 15% with a hit somewhere; the sample as a whole holds those more often.
Label satisfied when growth inhibition is at or above 60%; anything below gets not satisfied.

Please review the following examples before continuing.
-- ask Item COc1cc(C(CN)N(C)C)cc(OC)c1OC (stereo unspecified) with growth inhibition of 60% or above?
-- reply not satisfied

-- ask Item CC1Oc2cc3c(-c4c(O)cc(O)c5c(O)c6c(cc45)OC(C)C(C)C6=O)c(O)cc(O)c3c(O)c2C(=O)C1C (stereo unspecified) with growth inhibition of 60% or above?
-- reply satisfied

-- ask Item CCOC(=O)/C(=C\c1ccc(OC)cc1)[Se]c1ccccc1 with growth inhibition of 60% or above?
-- reply not satisfied

-- ask Item CC[C@@]1(O)C[C@H](OC2CC(N(C)C)C(O)C(C)O2)c2c(cc3c(c2O)C(=O)c2c(O)ccc(O)c2C3=O)[C@H]1C(=O)OC (stereo partly specified) with growth inhibition of 60% or above?
-- reply satisfied

-- ask Item O=C1NC(=O)C(Br)C(=O)N1 (tested in a mixture with another compound) with growth inhibition of 60% or above?
-- reply not satisfied

-- ask Item CC[CH2][Sn](=[O])[c]1ccccc1 with growth inhibition of 60% or above?
-- reply not satisfied

-- ask Item CCC[CH2][Sn]1([CH2]CCC)[O]CC(Cc2ccccc2)[O]1 (stereo unspecified) with growth inhibition of 60% or above?
-- reply satisfied

-- ask Item COc1ccc2c3c([nH]c2c1)C(C)N(C)CC3 (stereo unspecified) with growth inhibition of 60% or above?
-- reply not satisfied

New cases:
-- ask Item O=[As](O)(O)c1ccccc1 with growth inhibition of 60% or above?
-- reply not satisfied

-- ask Item N#CCc1ccc(Br)cc1 with growth inhibition of 60% or above?
-- reply not satisfied

Origin of measurements: PubChem BioAssay (NCI)
